test system: HEK293; test: Cell cycle arrest in HEK293 cells at 10 to 20 uM after 24 hrs by propidium iodide staining based flow cytometric method; details: human, hek293, 24 h
observable: Activity

>  <molecule>
C[C@@]12C=C(C(=O)O)C[C@H]1[C@@H]1CCc3cc(O)c(C45CC6CC(CC(C6)C4)C5)cc3[C@H]1CC2

>  <observable>
Activity

>  <reported>
Non-Toxic

$$$$
>  <molecule>
C[C@]12CC[C@@H]3c4cc(-c5cccc6c5oc5ccccc56)c(O)cc4CC[C@H]3[C@@H]1CC(C(=O)O)C2O (some centres undefined)

>  <observable>
Activity

>  <reported>
Non-Toxic

$$$$
>  <molecule>
C[C@@]12C=C(C(=O)O)C[C@H]1[C@@H]1CCc3cc(O)c(C(=O)c4ccccc4)cc3[C@H]1CC2

>  <observable>
Activity

>  <reported>
Non-Toxic

$$$$
>  <molecule>
COc1cc2c(cc1C13CC4CC(CC(C4)C1)C3)[C@H]1CC[C@]3(C)C=C(C(=O)O)C[C@H]3[C@@H]1CC2

>  <observable>
Activity

>  <reported>
Non-Toxic

$$$$
